# Assayed System: protein kinase C beta (Homo sapiens)
# Sequence (P05771 whole entry): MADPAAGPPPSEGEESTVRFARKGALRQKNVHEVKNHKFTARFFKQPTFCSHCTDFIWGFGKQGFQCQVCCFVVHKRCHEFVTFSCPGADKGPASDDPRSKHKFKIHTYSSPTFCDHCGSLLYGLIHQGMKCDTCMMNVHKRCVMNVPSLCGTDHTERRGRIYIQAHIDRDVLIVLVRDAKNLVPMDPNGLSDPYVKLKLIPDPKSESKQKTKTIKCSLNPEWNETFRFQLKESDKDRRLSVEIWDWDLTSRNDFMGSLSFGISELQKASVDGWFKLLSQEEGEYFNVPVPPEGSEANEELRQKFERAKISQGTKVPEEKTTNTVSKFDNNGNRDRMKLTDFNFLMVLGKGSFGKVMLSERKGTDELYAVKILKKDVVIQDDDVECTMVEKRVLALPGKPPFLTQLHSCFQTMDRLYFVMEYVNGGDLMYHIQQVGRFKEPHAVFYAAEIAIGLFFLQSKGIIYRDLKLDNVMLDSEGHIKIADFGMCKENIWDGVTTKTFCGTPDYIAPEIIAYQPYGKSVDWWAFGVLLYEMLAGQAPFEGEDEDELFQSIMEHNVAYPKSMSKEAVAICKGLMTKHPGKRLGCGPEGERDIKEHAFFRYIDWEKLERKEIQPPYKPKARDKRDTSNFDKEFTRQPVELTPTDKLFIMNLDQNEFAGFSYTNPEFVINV
# Experimental Details: In-lysate competition binding with kinobeads, Jurkat lysate, iTRAQ MS
# Applied Conditions: Jurkat cell lysate; concentration at which relative intensity of the MS signal is 50% of DMSO control; read-out: RI50 (PKCb)
Endpoint: pIC50
pIC50 here is simply -log10 of the concentration when that concentration is written in mol/L.

Record summary for Cn1cc(C2=C(c3cn(CCCN)c4ccccc34)C(=O)NC2=O)c2ccccc21 [Bis VIII, Bisindolylmaleimide VIII] : reported pIC50 = 7.67

* * *

# Assayed System: JNK2 (Mus musculus, UniProt Q9WTU6)
# Construct: from tissue; host or cells: mouse brain
# Sequence (Q9WTU6 whole entry): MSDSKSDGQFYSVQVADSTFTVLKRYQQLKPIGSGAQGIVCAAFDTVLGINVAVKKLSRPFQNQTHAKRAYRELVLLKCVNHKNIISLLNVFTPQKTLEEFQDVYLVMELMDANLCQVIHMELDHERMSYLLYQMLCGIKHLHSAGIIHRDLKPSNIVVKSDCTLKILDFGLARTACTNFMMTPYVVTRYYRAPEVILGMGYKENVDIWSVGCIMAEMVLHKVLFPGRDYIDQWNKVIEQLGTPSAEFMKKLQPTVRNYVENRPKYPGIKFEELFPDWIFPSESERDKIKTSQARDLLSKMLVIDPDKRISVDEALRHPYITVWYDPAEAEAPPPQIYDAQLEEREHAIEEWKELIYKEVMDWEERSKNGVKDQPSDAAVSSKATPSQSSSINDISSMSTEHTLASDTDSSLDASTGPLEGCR
# Experimental Details: Kinobeads elution with test compound, mouse brain lysate, MS
# Assay type: binding
# Applied Conditions: kinase released from kinobeads by specific elution
// number of identified peptides, JNK2 lookup, one value per entry
Response field accepts a number only; no unit should be typed.

Some compounds with known number of identified peptides, JNK2 results, for comparison:
CCCCCCCCCCCCOS(=O)(=O)[O-].[Na+]: 20
Cn1c(=O)c(-c2c(Cl)cccc2Cl)cc2cnc(Nc3ccc(CN)cc3)cc21: 21
CC(C)[C@H](CO)Nc1nc(Nc2ccc(C(=O)O)c(Cl)c2)c2ncn(C(C)C)c2n1 [Purvalanol B, reference compound]: 7
Oc1ccc(-c2nc(-c3ccc(F)cc3)c(-c3ccncc3)[nH]2)cc1: 5
NCc1ccc(Nc2ncc(F)c(Nc3ccccc3)n2)cc1: 18

# input for lookup
Recorded result, NCCCn1cc(C2=C(c3c[nH]c4ccccc34)C(=O)NC2=O)c2ccccc21 [CZC1038, Bisindolylmaleimide III, reference compound] , number of identified peptides, JNK2: 11

* * *

Overview of reported number of identified peptides, MAP2K1 across a group of compounds:
# Assayed System: MAP2K1 (Mus musculus)
# Construct: from tissue; host or cells: mouse brain
# Sequence (P31938 whole entry): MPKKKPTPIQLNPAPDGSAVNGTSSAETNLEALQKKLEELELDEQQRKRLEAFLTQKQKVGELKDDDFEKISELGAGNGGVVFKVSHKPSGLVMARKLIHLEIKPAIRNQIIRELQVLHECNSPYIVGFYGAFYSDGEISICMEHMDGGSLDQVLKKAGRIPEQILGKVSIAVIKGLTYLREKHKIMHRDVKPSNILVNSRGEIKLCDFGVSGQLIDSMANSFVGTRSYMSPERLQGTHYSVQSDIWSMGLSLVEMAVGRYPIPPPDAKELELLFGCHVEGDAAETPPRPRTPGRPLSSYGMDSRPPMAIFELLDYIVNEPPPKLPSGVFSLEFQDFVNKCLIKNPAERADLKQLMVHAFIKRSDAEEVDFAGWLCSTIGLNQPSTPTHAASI
# Experimental Details: Kinobeads elution with test compound, mouse brain lysate, MS
# Format: binding
# Applied Conditions: kinase released from kinobeads by specific elution
Answer using only a numeral; do not append any unit.

Known number of identified peptides, MAP2K1 results, listed for orientation:
CCCCCCCCCCCCOS(=O)(=O)[O-].[Na+]: 4
NCCCn1cc(C2=C(c3c[nH]c4ccccc34)C(=O)NC2=O)c2ccccc21 [CZC1038, Bisindolylmaleimide III, reference compound]: 6
CC(C)[C@H](CO)Nc1nc(Nc2ccc(C(=O)O)c(Cl)c2)c2ncn(C(C)C)c2n1 [Purvalanol B, reference compound]: 2

Per the record, CNC1CC2OC(C)(C1OC)n1c3ccccc3c3c4c(c5c6ccccc6n2c5c31)C(=O)NC4 (stereo not shown) has number of identified peptides, MAP2K1 of 2

* * *

# Assayed System: CSK (Mus musculus)
# Sequence (P41241 whole entry): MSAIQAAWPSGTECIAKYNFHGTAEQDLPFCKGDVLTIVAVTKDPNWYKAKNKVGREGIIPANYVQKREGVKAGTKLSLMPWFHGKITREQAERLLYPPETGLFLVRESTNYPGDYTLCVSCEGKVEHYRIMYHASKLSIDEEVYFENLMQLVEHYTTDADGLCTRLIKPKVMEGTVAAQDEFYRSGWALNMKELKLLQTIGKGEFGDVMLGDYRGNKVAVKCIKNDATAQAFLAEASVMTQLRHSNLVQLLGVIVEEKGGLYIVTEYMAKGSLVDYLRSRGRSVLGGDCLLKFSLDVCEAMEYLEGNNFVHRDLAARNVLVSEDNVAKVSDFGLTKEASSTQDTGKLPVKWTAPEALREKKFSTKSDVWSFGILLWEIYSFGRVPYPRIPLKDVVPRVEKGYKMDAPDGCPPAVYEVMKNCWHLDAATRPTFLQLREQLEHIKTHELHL
# Experimental Details: Kinobeads elution with test compound, mouse brain lysate, MS
# Format: binding
# Applied Conditions: kinase released from kinobeads by specific elution
Endpoint: mass spectrometry score, CSK
Enter the number alone.

Use the examples below as a reference point.
CNC1CC2OC(C)(C1OC)n1c3ccccc3c3c4c(c5c6ccccc6n2c5c31)C(=O)NC4 (stereo not shown) [CZC9280]: 307
Cn1c(=O)c(-c2c(Cl)cccc2Cl)cc2cnc(Nc3ccc(CN)cc3)cc21 [CZC7324]: 809
CC(C)[C@H](CO)Nc1nc(Nc2ccc(C(=O)O)c(Cl)c2)c2ncn(C(C)C)c2n1 [Purvalanol B, reference compound]: 492

--- query ---
// mass spectrometry score, CSK value for CCCCCCCCCCCCOS(=O)(=O)[O-].[Na+] [SDS] : 365
